Source listed as patent US9309248B2.

assayed_target: BIR2 domain of XIAP (Homo sapiens, UniProt P98170, C202A/C213G)
Construct: 6× Histidine-tagged BIR2 domain, corresponding to amino acids 124-240 of XIAP
Sequence (P98170 with tags, fused parts or gaps C202A/C213G): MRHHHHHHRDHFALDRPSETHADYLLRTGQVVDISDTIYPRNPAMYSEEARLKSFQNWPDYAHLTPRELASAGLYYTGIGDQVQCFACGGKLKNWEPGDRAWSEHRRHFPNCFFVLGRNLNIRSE
assay_method_text: TR-FRET assay for BIR2 (inhibition of binding of XIAP BIR2 domain to SMAC-derived Peptide A)
measurement_conditions: 6x Histidine-tagged BIR2 domain (amino acids 124-240 of XIAP) 10 nM, Peptide A 20 nM
Reported IC50 values for the following compounds.

compound: CCN[C@@H](C)C(=O)N[C@H](C(=O)N1c2ncccc2C[C@H]1C(=O)Nc1ccccc1)C1CCCCC1
unit_spec: nM
IC50: 353

compound: CN[C@@H](C)C(=O)N[C@H](C(=O)N1c2ncccc2C[C@@H]1c1nc2ccccc2[nH]1)C(C)C
unit_spec: nM
IC50: 37700

compound: CN[C@@H](C)C(=O)N[C@H](C(=O)N1c2ncccc2C[C@H]1C(=O)Nc1c(F)cccc1F)C(C)C
unit_spec: nM
IC50: 14.4

compound: CCN[C@@H](CC)C(=O)N[C@H](C(=O)N1c2ncccc2C[C@H]1C(=O)Nc1ccccc1)C(C)C
unit_spec: nM
IC50: 211

compound: CN[C@@H](C)C(=O)N[C@H](C(=O)N1c2ncccc2C[C@H]1C(=O)Nc1ccc(C(=O)c2ccccc2)cc1)C(C)C
unit_spec: nM
IC50: 847

compound: CN[C@@H](C)C(=O)N[C@H](C(=O)N1c2ncccc2C[C@H]1C(=O)Nc1ccccc1C(=O)c1ccccc1)C(C)C
unit_spec: nM
IC50: 61

compound: CN[C@@H](C)C(=O)N[C@H](C(=O)N1c2ncccc2C[C@H]1C(=O)Nc1c(C)cccc1Cl)C(C)C
unit_spec: nM
IC50: 19.2

compound: CN[C@@H](C)C(=O)N[C@H](C(=O)N1c2ncccc2C[C@H]1C(=O)NCc1ccc(F)cc1)C(C)C
unit_spec: nM
IC50: 774

compound: CN[C@@H](C)C(=O)N[C@H](C(=O)N1c2ncccc2C[C@H]1C(=O)Nc1ncc(C)s1)C(C)C
unit_spec: nM
IC50: 92.6

compound: CN[C@@H](C)C(=O)N[C@H](C(=O)N1c2ncccc2C[C@H]1C(=O)Nc1ccc(C#N)cc1F)C(C)C
unit_spec: nM
IC50: 140

compound: CN[C@@H](C)C(=O)N[C@H](C(=O)N1c2ncccc2C[C@@H]1C(=O)Nc1ccccc1Oc1ccccc1)C(C)C
unit_spec: nM
IC50: 11700

compound: CC[C@H](NC)C(=O)N[C@H](C(=O)N1CC(C)(C)c2cccnc21)C(C)C
unit_spec: nM
IC50: 4030

compound: CCNC(=O)C1Cc2cccnc2N1C(=O)[C@@H](NC(=O)[C@H](C)NC)[C@@H](C)CC (some centres unmarked)
unit_spec: nM
IC50: 1280

compound: CN[C@@H](C)C(=O)N[C@H](C(=O)N1c2ncccc2C[C@H]1C(=O)NC(C)(C)c1ccccc1)C(C)C
unit_spec: nM
IC50: 4730

compound: CN[C@@H](C)C(=O)N[C@H](C(=O)N1CC(C)(C)c2cccnc21)C(C)C
unit_spec: nM
IC50: 3880

compound: CN[C@@H](C)C(=O)N[C@H](C(=O)N1c2ncccc2C[C@H]1C(=O)Nc1ccc(F)cc1)C(C)C
unit_spec: nM
IC50: 275

compound: CC[C@H](NCCO)C(=O)N[C@H](C(=O)N1c2ncccc2C[C@H]1C(=O)Nc1ccccc1)C(C)C
unit_spec: nM
IC50: 1610

compound: CN[C@@H](C)C(=O)N[C@H](C(=O)N1c2ncccc2C[C@H]1C(=O)Nc1cc(C)ccc1F)C(C)C
unit_spec: nM
IC50: 3.8

compound: CN[C@@H](C)C(=O)N[C@@H](CCS(C)(=O)=O)C(=O)N1c2ncccc2C[C@@H]1C(=O)Nc1ccccc1
unit_spec: nM
IC50: 3060

compound: CN[C@@H](C)C(=O)N[C@H](C(=O)N1c2ncccc2C[C@@H]1C(=O)Nc1c(F)cccc1F)C(C)C
unit_spec: nM
IC50: 421

compound: CC[C@H](NC)C(=O)N[C@H](C(=O)N1c2ncccc2C[C@@H]1C(=O)Nc1ccccc1)C1CCCCC1
unit_spec: nM
IC50: 10400

compound: CN[C@@H](C)C(=O)N[C@H](C(=O)N1c2ncccc2C[C@H]1C(=O)Nc1ccc(C2CCNCC2)cc1)C(C)C
unit_spec: nM
IC50: 701

compound: CN[C@@H](C)C(=O)N[C@H](C(=O)N1c2ncccc2C[C@H]1C(=O)Nc1c(Cl)cccc1C(F)(F)F)C(C)C
unit_spec: nM
IC50: 57.5

compound: CN[C@@H](C)C(=O)N[C@H](C(=O)N1c2ncccc2C[C@@H]1C(=O)Nc1c(F)cccc1F)C1CCOCC1
unit_spec: nM
IC50: 607

compound: CN[C@@H](C)C(=O)N[C@H](C(=O)N1c2ncccc2C[C@@H]1C(=O)Nc1ccccc1OC)C(C)C
unit_spec: nM
IC50: 12700

compound: CN[C@@H](C)C(=O)N[C@H](C(=O)N1c2ncccc2C[C@@H]1C(=O)Nc1cnccc1C)C(C)C
unit_spec: nM
IC50: 1360

compound: CN[C@@H](C)C(=O)N[C@H](C(=O)N1c2ncccc2C[C@H]1C(=O)NCC(F)(F)F)C(C)C
unit_spec: nM
IC50: 323

compound: CN[C@@H](C)C(=O)N[C@H](C(=O)N1c2ncccc2C[C@H]1C(=O)Nc1ccccc1C#N)C(C)C
unit_spec: nM
IC50: 54.9

compound: CN[C@@H](C)C(=O)N[C@H](C(=O)N1c2ncccc2C[C@H]1C(=O)Nc1ccc(OC)cc1F)C(C)C
unit_spec: nM
IC50: 4.29
